# System: SNB-19 CNS
# assay.procedure: NCI-60 one-dose screen, 48 h (100 = growth as untreated, 0 = no growth, -100 = all killed)
# condition.set: 10 µM unless noted
About 83,000 compounds went through this panel and 20% of them were active in at least one assay; those are over-represented in the sample as a whole. Calls of active or inactive are those of the source. The calls were made as follows: active = growth percent below 10; inactive = the rest.
Below, each entry is listed alongside its reported growth.
measured.attribute: growth

{"molecule": "C=CCn1c(SCC(=O)Nc2ccc(C(=O)/C=C/c3cc(OC)c(OC)c(OC)c3)cc2)nnc1-c1ccc(OC)cc1", "measured.attribute": "growth", "result": "14.3% (inactive)"}
{"molecule": "CC1(C)N=C(N)N=C(N)N1c1ccc(F)c(C(F)(F)F)c1", "measured.attribute": "growth", "result": "44% (inactive)"}
{"molecule": "O=C(NCCNc1nccc(-c2c(-c3cccc(O)c3)nc3sccn23)n1)c1cccc(C(F)(F)F)c1", "measured.attribute": "growth", "result": "116% (inactive)"}
{"molecule": "Nc1nc(-c2cc3c(cc2Cl)NC(=O)/C3=C/c2ccccc2)cs1", "measured.attribute": "growth", "result": "59.7% (inactive)"}
{"molecule": "Cc1cccc(NCS(=O)(=O)O)c1", "measured.attribute": "growth", "result": "101% (inactive)"}
{"molecule": "COc1ccc(N)c(S)c1", "measured.attribute": "growth", "result": "100% (inactive)"}
{"molecule": "CC[C@H]1[C@@H]2C=C[C@@H]3[C@H]4C/C=C\\C(=O)NCCC[C@@H]5NC(=O)/C(=C(O)/C=C/[C@@H]4C[C@@H]3[C@H]2C[C@H]1C)C5=O", "measured.attribute": "growth", "result": "-40.6% (active)"}
{"molecule": "CC(CCC(=O)O)[C@H]1CCC2C3C(=O)C[C@@H]4CC(=O)CC[C@]4(C)C3CC(=O)[C@@]21C (stereo partly specified)", "measured.attribute": "growth", "result": "101% (inactive)"}
{"molecule": "COc1cc(C(=O)C[n+]2ccccc2)ccc1OC(C)=O", "measured.attribute": "growth", "result": "98.6% (inactive)"}
{"molecule": "O=C(NCCNc1nccc(-c2c(-c3cccc(O)c3)nc3sccn23)n1)c1ccc(N2CCOCC2)c(C(F)(F)F)c1", "measured.attribute": "growth", "result": "107% (inactive)"}
{"molecule": "COc1cc2ncnc(Oc3ccc(NC(=O)Nc4ccc(C5(C#N)CCCC5)cc4)c4ccccc34)c2cc1OC", "measured.attribute": "growth", "result": "36.7% (inactive)"}
{"molecule": "COc1cc(/C=C/C(=O)c2c(C)n([O-])c3cc(C)c(C)cc3[n+]2=O)cc(OC)c1OC", "measured.attribute": "growth", "result": "60.5% (inactive)"}
{"molecule": "Cc1cn(-c2nc3c(c(NCc4ccccc4)n2)COCC3)c2cccc(C(N)=O)c12", "measured.attribute": "growth", "result": "97.4% [0.5 µM] (inactive)"}
{"molecule": "CCOc1ccc(Cc2nccc3cc(OCC)c(OCC)cc23)cc1OCC", "measured.attribute": "growth", "result": "62.5% (inactive)"}
{"molecule": "COc1ccccc1C(OC(C)=O)OC(C)=O", "measured.attribute": "growth", "result": "113% (inactive)"}
{"molecule": "CC(=O)O[C@@H]1[C@@H](OC(C)=O)[C@H](OC(C)=O)CO[C@H]1Nc1cccc2ccccc12", "measured.attribute": "growth", "result": "105% (inactive)"}
{"molecule": "C#C[C@@]1(O)[C@@H](CO)O[C@@H](n2cc(C(F)(F)F)c3c(N)ncnc32)[C@@H]1O", "measured.attribute": "growth", "result": "10.7% (inactive)"}
{"molecule": "COc1ccccc1NC(=O)COc1ccc(/C=C2/Oc3cc4occc4c(OC)c3C2=O)cc1OC", "measured.attribute": "growth", "result": "105% (inactive)"}
{"molecule": "CC(=O)c1cc2c(c(O)c1C)C(=O)C(=O)c1c(O)cccc1-2", "measured.attribute": "growth", "result": "-85.9% (active)"}
{"molecule": "COc1ccc(-c2nnc(SCC(=O)Nc3ccc(C(=O)/C=C/c4ccccc4)cc3)o2)cc1OC", "measured.attribute": "growth", "result": "92.2% (inactive)"}
{"molecule": "C[C@]12O[C@H]1[C@H](O)c1c(cc(O)c3c1C(=O)c1cccc(O)c1-3)C2=O", "measured.attribute": "growth", "result": "104% (inactive)"}
{"molecule": "c1ccc2nc(Cn3cc[n+](Cc4ccc5ccccc5n4)c3)ccc2c1", "measured.attribute": "growth", "result": "47.7% (inactive)"}
{"molecule": "COc1ccc(-n2c(-c3ccc(NC(=O)CCCl)cc3)nnc2-c2cc(OC)c(OC)c(OC)c2)cc1", "measured.attribute": "growth", "result": "52% (inactive)"}
{"molecule": "O=C1OC(=O)C2C3CC(c4ccccc43)C12 (stereo unspecified)", "measured.attribute": "growth", "result": "107% (inactive)"}
{"molecule": "COc1ccc(-c2nnc(SCC(=O)Nc3ccc(C(=O)/C=C/c4ccc(Cl)cc4)cc3)o2)cc1OC", "measured.attribute": "growth", "result": "84.6% (inactive)"}
{"molecule": "C=C1C(=O)O[C@H]2[C@H]1CC/C(C(=O)Nc1ccc(OC)c(C(N)=O)c1O)=C\\CC[C@@]1(C)O[C@@H]21", "measured.attribute": "growth", "result": "90.4% (inactive)"}

This collection of values is drawn from PubChem BioAssay (NCI).
